Target: T1, CRBN, Q96SW2;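 further: pooled lentiviral library of zinc finger degron-EGFP fusions in mCherry-positive Jurkat cells, FACS-sorted after compound exposure, with degron abundance counted by next-generation sequencing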
T1 chain: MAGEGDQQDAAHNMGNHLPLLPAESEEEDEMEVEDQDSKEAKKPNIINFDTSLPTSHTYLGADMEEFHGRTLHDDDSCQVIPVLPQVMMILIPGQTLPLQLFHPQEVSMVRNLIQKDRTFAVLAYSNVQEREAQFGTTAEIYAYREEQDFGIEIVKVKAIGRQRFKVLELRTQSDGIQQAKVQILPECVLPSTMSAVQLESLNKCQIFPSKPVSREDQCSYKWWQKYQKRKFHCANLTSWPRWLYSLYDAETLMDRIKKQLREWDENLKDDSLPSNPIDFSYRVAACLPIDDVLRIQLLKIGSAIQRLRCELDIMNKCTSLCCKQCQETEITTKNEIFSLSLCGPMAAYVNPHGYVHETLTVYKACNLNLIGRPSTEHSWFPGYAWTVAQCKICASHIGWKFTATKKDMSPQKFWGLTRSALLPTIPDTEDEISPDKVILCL
Assay: log2 fold change of degron read counts, EGFP-low vs EGFP+ sorted cells (limma voom), compound-induced degradation; higher = more compound-induced degradation of the degron-EGFP fusion; degrons are variants of IKZF1/3 zinc finger 2; compound dose not given here
Conditions: Jurkat; 18 h; compound: compound 33 (diphenyl IMiD analogue)
Over roughly 8,300 sequences, “log2 fold change of degron read counts, EGFP-low vs EGFP+ sorted cells (limma voom), compound-induced degradation” has its median near -1.1; the highest 2% begin near 3.2. The full list was thinned out, with the highest values kept by preference.
Values of log2 fold change of degron read counts greater than or equal to 0.1 map to satisfied; values below map to not satisfied.

Determine whether this sequence has log2 fold change of degron read counts no lower than 0.1: FECNICGAHFTQKGNLLRHIKL [46F_47E_49N_50I_52G_53A_54H_55F_67L_, Q9UKT9] satisfied

Consider next the sequence LFCPICGFHCTQKGNLLRHIKL [46L_47F_49P_50I_52G_53F_54H_55C_67L_, Q9UKT9] in the same way. satisfied

Repeat for the following sequence: FECPICGREFTQKGNLLRHIKL [46F_47E_49P_50I_52G_53R_54E_55F_67L_, Q9UKT9] not satisfied

# iterate: LTCPICGFHCTQKGNLLRHIKL [46L_47T_49P_50I_52G_53F_54H_55C_67L_, Q9UKT9] satisfied

Field entry: FICNQCGRHFTQKGNLLRHIKL [46F_47I_49N_50Q_52G_53R_54H_55F_67L_, Q9UKT9] not satisfied

Now the sequence FSCDQCGAAFTQKGNLLRHIKL [46F_47S_49D_50Q_52G_53A_54A_55F_67L_, Q9UKT9] satisfied

Follow-up item: FYCNQCGRHFTQKGNLLRHIKL [46F_47Y_49N_50Q_52G_53R_54H_55F_67L_, Q9UKT9] not satisfied

// same read-out, input: LQCPICGFHCTQKGNLLRHIKL [46L_47Q_49P_50I_52G_53F_54H_55C_67L_, Q9UKT9] satisfied

Now the same for LECPICGFHCTQKGNLLRHIKL [46L_47E_49P_50I_52G_53F_54H_55C_67L_, Q9UKT9] satisfied

Also FNCSVCGHNFTQKGNLLRHIKL [46F_47N_49S_50V_52G_53H_54N_55F_67L_, Q9UKT9] ? not satisfied

Entry FHCNVCGARFTQKGNLLRHIKL [46F_47H_49N_50V_52G_53A_54R_55F_67L_, Q9UKT9] please not satisfied

Try the sequence LNCPICGFECTQKGNLLRHIKL [46L_47N_49P_50I_52G_53F_54E_55C_67L_, Q9UKT9] satisfied

For LSCPICGFHCTQKGNLLRHIKL [46L_47S_49P_50I_52G_53F_54H_55C_67L_, Q9UKT9] then? satisfied

Next sequence: LHCPICGFHCTQKGNLLRHIKL [46L_47H_49P_50I_52G_53F_54H_55C_67L_, Q9UKT9] satisfied

# iterate: LVCPICGFHCTQKGNLLRHIKL [46L_47V_49P_50I_52G_53F_54H_55C_67L_, Q9UKT9] satisfied
